B1: Osa-1-4 twister ribozyme (parent)
chain: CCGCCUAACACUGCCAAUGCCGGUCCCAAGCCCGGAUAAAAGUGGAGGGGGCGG

Variants of: B1
Assay: self-cleavage, relative activity (ratio to wild type); higher = more cleavage; co-transcriptional
Measurement name: self-cleavage
No unit in the answer, please; the number alone is enough.

Problem: Respond only with self-cleavage recorded for C21A C9A
Result: 0.07

Problem: Respond only with self-cleavage recorded for A38C G51C
Result: 0.09

Problem: Respond only with self-cleavage recorded for A29U A38C
Result: 0.08

Problem: Respond only with self-cleavage recorded for A36C U18C
Result: 0.67

Problem: Respond only with self-cleavage recorded for A16G A17G
Result: 0.92

Problem: Respond only with self-cleavage recorded for A39C C27G
Result: 0.06

Problem: Respond only with self-cleavage recorded for G50U U37A
Result: 0.85

Problem: Respond only with self-cleavage recorded for A16C A7G
Result: 0.17

Problem: Respond only with self-cleavage recorded for G19C
Result: 0.27

Problem: Respond only with self-cleavage recorded for A46U G47C
Result: 0.04

Problem: Respond only with self-cleavage recorded for G22A U37C
Result: 1.01

Problem: Respond only with self-cleavage recorded for A29C G44A
Result: 0.04

Problem: Respond only with self-cleavage recorded for G45U G53C
Result: 0.03

Problem: Respond only with self-cleavage recorded for A17U G22U
Result: 0.63

Problem: Respond only with self-cleavage recorded for G44U G49C
Result: 0.08

Problem: Respond only with self-cleavage recorded for G13C U37A
Result: 0.02

Problem: Respond only with self-cleavage recorded for C9U G19U
Result: 0.08

Problem: Respond only with self-cleavage recorded for C25G G30A
Result: 0.02

Problem: Respond only with self-cleavage recorded for C11U G42C
Result: 0.85

Problem: Respond only with self-cleavage recorded for A7C C11A
Result: 0.06

Problem: Respond only with self-cleavage recorded for C21U G23C
Result: 0.06

Problem: Respond only with self-cleavage recorded for C20A G45U
Result: 0.13

Problem: Respond only with self-cleavage recorded for A38C C33U
Result: 0.79

Problem: Respond only with self-cleavage recorded for A10C A7G
Result: 0.06

Problem: Respond only with self-cleavage recorded for C20G G49U
Result: 0.04

Problem: Respond only with self-cleavage recorded for G22A G51C
Result: 0.14

Problem: Respond only with self-cleavage recorded for A41G C31U
Result: 0.17

Problem: Respond only with self-cleavage recorded for A28G C20U
Result: 0.31

Problem: Respond only with self-cleavage recorded for A46U G51A
Result: 0.09

Problem: Respond only with self-cleavage recorded for A10U A38U
Result: 0.05

Problem: Respond only with self-cleavage recorded for A7G C33G
Result: 0.03

Problem: Respond only with self-cleavage recorded for C32U C52A
Result: 0.13

Problem: Respond only with self-cleavage recorded for G22A G34C
Result: 0.11

Problem: Respond only with self-cleavage recorded for C15U C27A
Result: 0.07

Problem: Respond only with self-cleavage recorded for A16U U24G
Result: 0.02

Problem: Respond only with self-cleavage recorded for C31A G23A
Result: 0.03

Problem: Respond only with self-cleavage recorded for A28G G19A
Result: 0.15

Problem: Respond only with self-cleavage recorded for G19C G35A
Result: 0.45

Problem: Respond only with self-cleavage recorded for C25G C33U
Result: 0.06

Problem: Respond only with self-cleavage recorded for A28C U24C
Result: 0.18

Problem: Respond only with self-cleavage recorded for A7G G51U
Result: 0.08
